pKd by entry:
Molecular target: BRD4-BD2 (Homo sapiens, UniProt O60885)
Test: Binding affinity to BRD4-BD2 (bromoKdELECT assay)
Settings: 11-point 3-fold dilution series
pKd: −log10 of the molar value.

For orientation, consider the following solved cases.
• Cn1cc(-c2cc(C(C)(C)O)ccc2Oc2cccc(CCCN3CCN(c4ncc(C(=O)N[C@H]5C(C)(C)[C@H](Oc6ccc(C#N)c(Cl)c6)C5(C)C)cn4)CC3)c2)c2cc[nH]c2c1=O [Compound I-110] = > 7.30
• Cn1cc(-c2cc(C(C)(C)O)ccc2Oc2cccc(N3CC(OC4CCN(c5ncc(C(=O)N[C@H]6C(C)(C)[C@H](Oc7ccc(C#N)c(Cl)c7)C6(C)C)cn5)CC4)C3)c2F)c2cc[nH]c2c1=O [Compound I-190] = 6.30 to 7.30
• Cn1cc(-c2cc(N)ccc2Oc2cccc(OCCOC3CCN(c4ncc(C(=O)N[C@H]5C(C)(C)[C@H](Oc6ccc(C#N)c(Cl)c6)C5(C)C)cn4)CC3)c2)c2cc[nH]c2c1=O [Compound I-62] = < 5.60
• Cn1cc(-c2cc(C(C)(C)O)ccc2Oc2cccc(N3CC(N4CCN(c5ncc(C(=O)N[C@H]6C(C)(C)[C@H](Oc7ccc(C#N)c(Cl)c7)C6(C)C)cn5)CC4)C3)c2)c2cc[nH]c2c1=O [Compound I-105] = > 7.30

Then this compound:
Quick one: pKd of CCS(=O)(=O)Nc1ccc(Oc2cccc(OCCCN3CCN(CCCN(C)c4ncc(C(=O)N[C@H]5C(C)(C)[C@H](Oc6ccc(C#N)c(Cl)c6)C5(C)C)cn4)CC3)c2)c(-c2cn(C)c(=O)c3[nH]ccc23)c1 [Compound I-5] ? > 7.30
